meta.source: ChEMBL document CHEMBL5543103

- Species on record: Oryctolagus cuniculus
- experimentSummary: Inhibition of rabbit skeletal muscle G-actin polymerization at 0.5 uM preincubated for 50 sec followed by ATP addition and measured for 600 sec by fluorescence spectrophotometer method relative to control
- reportedConditions: time 650.0 sec
Classify by measured inhibition: YES if it is equal to or exceeds 50%, NO if it is smaller.

# structureAsSmiles, labelValue
data = [
    ("CCC(=O)O[C@@H](C[C@H](OC)[C@@H](C)CC[C@@H](OC(=O)C(C)C)[C@H](C)[C@H](OC)[C@H](C)/C=C/N(C=O)CC(F)(F)F)C(C)C", "YES"),
    ("CCC(=O)O[C@@H](C[C@H](OC)[C@@H](C)CC[C@@H](OC(=O)C1CCCCC1)[C@H](C)[C@H](OC)[C@H](C)/C=C/N(C)C=O)C(C)C", "YES"),
    ("CCC(=O)O[C@@H](C[C@H](OC)[C@@H](C)CC[C@@H](OC(=O)[C@H]1CCCO1)[C@H](C)[C@H](OC)[C@H](C)/C=C/N(C=O)CC)C(C)C", "YES"),
    ("CCC(=O)O[C@@H](C[C@H](OC)[C@@H](C)CC[C@@H](OC(=O)C1CCC1)[C@H](C)[C@H](OC)[C@H](C)/C=C/N(C)C=O)C(C)C", "YES"),
    ("CCC(=O)O[C@@H](C[C@H](OC)[C@@H](C)CC[C@@H](OC(=O)C(C)C)[C@H](C)[C@H](OC)[C@H](C)/C=C/N1CCCC1=O)C(C)C", "NO"),
    ("CCC(=O)O[C@@H](C[C@H](OC)[C@@H](C)CC[C@@H](OC(=O)C(C)C)[C@H](C)[C@H](OC)[C@H](C)/C=C/N(C)C=O)C1CCCCC1", "YES"),
]

====

- experimentSummary: Partition coefficient, logP of compound
- Format: physicochemical
- reportedConditions: octanol/water

# structureAsSmiles, logP
rows = [
    ("CCN(C=O)/C=C/[C@@H](C)[C@@H](OC)[C@@H](C)[C@@H](CC[C@H](C)[C@H](C[C@H](OC(=O)CCCN)C(C)C)OC)OC(=O)[C@H]1CCCO1", 4.55),
    ("CCC(=O)O[C@@H](C[C@H](OC)[C@@H](C)CC[C@@H](OC(=O)[C@H]1CCCO1)[C@H](C)[C@H](OC)[C@H](C)/C=C/N(C=O)CC)C(C)C", 5.67),
    ("CCC(=O)O[C@@H](C[C@H](OC)[C@@H](C)CC[C@@H](OC(=O)[C@H]1CCCO1)[C@H](C)[C@H](OC)[C@H](C)/C=C/N(C)C=O)C(C)C", 5.3),
    ("CO[C@@H]([C@@H](C)[C@@H](CC[C@H](C)[C@H](C[C@H](OC(=O)CCCN)C(C)C)OC)OC(=O)[C@H]1CCCO1)[C@H](C)/C=C/N(C)C=O", 4.18),
]

====

- Species: Oryctolagus cuniculus
- experimentSummary: Inhibition of rabbit skeletal muscle G-actin polymerization at 0.5 uM preincubated for 50 sec followed by ATP addition and measured for 600 sec by fluorescence spectrophotometer method relative to control
- reportedConditions: time 650.0 sec
# inhibition binned as label 0 (below 40%), label 1 (40% to below 50%), label 2 (50% or more)

# molecule, labelValue
records = [
    ("CCC(=O)O[C@@H](C[C@H](OC)[C@@H](C)CC[C@@H](OC(=O)C(C)C)[C@H](C)[C@H](OC)[C@H](C)/C=C/N(C)C=O)C(C)C", "label 0"),
    ("CO[C@@H]([C@@H](C)[C@@H](CC[C@H](C)[C@H](C[C@H](OC(=O)CCCN)C(C)C)OC)OC(=O)[C@H]1CCCO1)[C@H](C)/C=C/N(C)C=O", "label 2"),
    ("CCC(=O)O[C@@H](C[C@H](OC)[C@@H](C)CC[C@@H](OC(=O)C(C)C)[C@H](C)[C@H](OC)[C@H](C)/C=C/N(C=O)CC)C(C)C", "label 2"),
    ("CCC(=O)O[C@@H](C[C@H](OC)[C@@H](C)CC[C@@H](OC(=O)C(C)C)[C@H](C)[C@H](OC)[C@H](C)/C=C/N1CCCCC1=O)C(C)C", "label 0"),
    ("CCC(=O)O[C@@H](C[C@H](OC)[C@@H](C)CC[C@@H](OC(=O)C1CCCC1)[C@H](C)[C@H](OC)[C@H](C)/C=C/N(C)C=O)C(C)C", "label 2"),
    ("CC[C@@H](O)C[C@H](OC)[C@@H](C)CC[C@@H](OC(=O)C(C)C)[C@H](C)[C@H](OC)[C@H](C)/C=C/N(C)C=O", "label 0"),
    ("CCC(=O)O[C@@H](C[C@H](OC)[C@@H](C)CC[C@@H](OC(=O)[C@H]1CCCN1C)[C@H](C)[C@H](OC)[C@H](C)/C=C/N(C)C=O)C(C)C", "label 1"),
    ("CCC(=O)O[C@@H](C[C@H](OC)[C@@H](C)CC[C@@H](OC(=O)c1ccco1)[C@H](C)[C@H](OC)[C@H](C)/C=C/N(C)C=O)C(C)C", "label 1"),
    ("CCC(=O)O[C@@H](C[C@H](OC)[C@@H](C)CC[C@@H](OC(=O)[C@H]1CCCO1)[C@H](C)[C@H](OC)[C@H](C)/C=C/N(C)C=O)C(C)C", "label 2"),
    ("CCC(=O)O[C@@H](C[C@H](OC)[C@@H](C)CC[C@@H](OC(=O)C(C)C)[C@H](C)C(OC)[C@H](C)/C=C/N(C=O)C1CC1)C(C)C (single isomer, unassigned)", "label 2"),
    ("CCC(=O)O[C@@H](C[C@H](OC)[C@@H](C)CC[C@@H](OC(=O)C(C)C)[C@H](C)[C@H](OC)[C@H](C)/C=C/N1CCC1=O)C(C)C", "label 0"),
]
